test system: MONO-MAC-6 (Acute Myeloid Leukemia); test: combination Emax (second highest fraction inhibited in the dose matrix, 72 h); higher = more inhibition; extreme values may be limits of the assay
combination Emax values by entry

- Cc1c2c(nn1C)CSCc1cc(n(C)n1)CSc1cc(c3ccccc3c1)OCCCc1c(C(=O)O)n(C)c3c-2c(Cl)ccc13 [AZD5991] + C1CN(CCC1(C(=O)N[C@@H](CCO)C2=CC=C(C=C2)Cl)N)C3=NC=NC4=C3C=CN4 [Capivasertib] (first compound max 1 µM, 7x7, partner max 3 µM): 1

Input line: Value wanted: combination Emax (MONO-MAC-6 (Acute Myeloid Leukemia)) of entry CC1(C)CCC(CN2CCN(c3ccc(C(=O)NS(=O)(=O)c4ccc(NCC5CCOCC5)c([N+](=O)[O-])c4)c(Oc4cnc5[nH]ccc5c4)c3)CC2)=C(c2ccc(Cl)cc2)C1 [Venetoclax] + C[C@@H](Nc1cc(F)cc(F)c1)c1cc(C(=O)N(C)C)cc2c(=O)cc(N3CCOCC3)oc12 [AZD8186] (first compound max 1 µM, 7x7, partner max 3 µM)
Output line: 0.808

###

tested on: SNU-423 (Hepatocellular Carcinoma); assay: Bliss excess, mean over the matrix (fraction); higher = more synergy
measured_quantity: Bliss excess
Give a plain numeric answer without units written out.

- NC1(C(=O)N[C@@H](CCO)c2ccc(Cl)cc2)CCN(c2ncnc3[nH]ccc23)CC1 [Capivasertib] + CC(=O)c1c(C)c2cnc(Nc3ccc(N4CCNCC4)cn3)nc2n(C2CCCC2)c1=O [Palbociclib] (first compound max 10 µM, 7x7, partner max 10 µM): -0.0019

# ---- query molecule ----
Input line: Request the reported Bliss excess associated with COc1nnc2ccc(N3CCC(c4ccc(OCCN5CCN(C)C(=O)[C@H]5C)cc4)CC3)nn12 [AZD5153] + CC1(C)CCC(CN2CCN(c3ccc(C(=O)NS(=O)(=O)c4ccc(NCC5CCOCC5)c([N+](=O)[O-])c4)c(Oc4cnc5[nH]ccc5c4)c3)CC2)=C(c2ccc(Cl)cc2)C1 [Venetoclax] (first compound max 1 µM, 7x7, partner max 1 µM)
Output line: -0.0223

###

system: DBTRG-05MG (Glioblastoma); assay: Bliss excess, mean over the matrix (fraction); higher = more synergy
Bliss excess values by entry
Give a plain numeric answer without units written out.

Worked examples, 3 molecules total:
• COc1cccc(OCCCN)c1-c1cc(Nc2cnc(C#N)cn2)n[nH]1 [Prexasertib] + CN(C)CCCOc1ccc(-c2ccc3ncc4c(c3c2)n(C2CCOCC2)c(=O)n4C)cn1 [AZD0156] (first compound max 1 µM, 7x7, partner max 1 µM) = -0.0209
• CC1(C)CCC(CN2CCN(c3ccc(C(=O)NS(=O)(=O)c4ccc(NCC5CCOCC5)c([N+](=O)[O-])c4)c(Oc4cnc5[nH]ccc5c4)c3)CC2)=C(c2ccc(Cl)cc2)C1 [Venetoclax] + CCN(CCO)CCCOc1ccc2c(Nc3cc(CC(=O)Nc4cccc(F)c4)[nH]n3)ncnc2c1 [AZD2811] (first compound max 1 µM, 7x7, partner max 1 µM) = -0.0171
• CS(=O)(=O)CCNCc1ccc(-c2ccc3ncnc(Nc4ccc(OCc5cccc(F)c5)c(Cl)c4)c3c2)o1 [Lapatinib] + C[C@@H](Oc1cc(-c2cnn(C3CCNCC3)c2)cnc1N)c1c(Cl)ccc(F)c1Cl [Crizotinib] (first compound max 10 µM, 7x7, partner max 10 µM) = -0.0334

Input line: Request the reported Bliss excess associated with Cc1c2c(nn1C)CSCc1cc(n(C)n1)CSc1cc(c3ccccc3c1)OCCCc1c(C(=O)O)n(C)c3c-2c(Cl)ccc13 [AZD5991] + C[C@@H]1COCCN1C2=NC(=NC(=C2)C3(CC3)[S@](=N)(=O)C)C4=C5C=CNC5=NC=C4 [AZD6738] (first compound max 1 µM, 7x7, partner max 10 µM)
Output line: 0.0578

Cited source: the supplement of paper PMC11061612
